- test system: T1, recombinant biotinylated human NKG2D (Example 5) (human, UniProt P26718 73-216, biotinylated)
- T1 sequence: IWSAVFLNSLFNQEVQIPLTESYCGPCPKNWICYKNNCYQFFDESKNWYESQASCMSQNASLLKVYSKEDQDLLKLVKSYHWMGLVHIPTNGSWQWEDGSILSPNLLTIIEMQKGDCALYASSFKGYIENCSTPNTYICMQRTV
- experimental details: competition ELISA; NKG2D preincubated with antibody, MIC-B coated; EC50 estimated if no full plateau
Collected EC50 values appear next to each entry.
Please reply with the bare figure in µg/mL and do not write the unit itself.

Some solved cases for reference:
| binder | numeric readout |
| --- | --- |
| anti-NKG2D antibody clone 001 (antibody, V domains shown, From transgenic rabbits) VH: QQLEQSGGGLVTPGGSLKLCCIGSGFDFNTYWMTWVRQAPGKGLEWIGCIHGGSSGSTYYASWVNGRFTLSRDIDQSTGCLQVNSLTAADTAMYYCARPGYRSWSKTFDLWGQGTMVTVSS VL: DIQMTQSPSSLSASVGDRVTITCRASQDISESLNWYQQKPGKAPKLLIYAASSLQSGVPSRFSGSGSGTDYTLTISSLQPEDFATYYCQQANSFPLTFGGGTKVEIK | 0.56 |
| anti-NKG2D antibody clone 296 (antibody, V domains shown, From transgenic rabbits) VH: EVQLLESGGGLVQPGGSLRLSCAASGFTFSSYAMSWVRQAPGKGLEWVSAIGIGGGGTYYADSVKGRFTISRDNSKNTLYLQMNSLRAEDTAVYHCAKGASFDFINFFPYWGQGTLVTVSS VL: DIQMTQSPSSLSASVGDRVTITCRASQGISNDLAWYQQKPGKAPKLLIYAASSLQSGVPSRFSGSGSGTDFTLTISSLQPEDFATYYCQQTYSTPLTFGGGTKVEIK | 0.02 |
| anti-NKG2D antibody clone 395 (antibody, V domains shown, From transgenic rabbits; rabbit VH, human VL) VH: QEQLEQSGGGLVTPGGSLKLCCTASGFDFNTFWMTWVRQAPGKGLEWIGCIHGGSGSRDYASWVNGRFTLSRDIDQSTACLQVNSLTAADTAMYYCARPGYRSWSKTFDLWGQGTMVTVSS VL: DIQMTQSPSSLSASVGDRVTITCRASQDISGALNWYQQKPGKAPNLLIYAASSLQSGVPSRFSGSGSGTDYTLTISSLQPEDFATYYCQQANSFPLTFGGGTKVEIK | 1.64 |
| anti-NKG2D antibody clone 230 (antibody, V domains shown, From transgenic rabbits) VH: QQLEQSGGGLVKPGGSLELCCIASGFDFSTYWMTWVRQAPGKGLEWIGCIHGGGSGTTSYASWVNGRFTLSRDIDQSTGCLQLTSLTAADTAMYYCARPGYRSWSKTFDLWGQGTMVTVSS VL: DIQMTQSPSSLSASVGDRVTITCQANQDISNALNWYQQKPGKAPKLLIYAASSLQSGVPSRFSGSGSGTDFTLTISSLQPEDFAAYYCQQAASFPLTFGGGTKVEIK | 1.06 |

Query: EC50 for anti-NKG2D antibody clone 018 (antibody, V domains shown, From transgenic rabbits) VH: QQLEQSGGGLVTPGGSLKVCCKASGFDFTTYWMTWVRQAPEKGLEWIGCIHGGDSGATYYANWVNGRFTLSRDIDQSTGCLQLNSLTAADTAMYYCARPGYPSWSKTFDLWGQGTMVTVSS VL: DIQMTQSPSSLSASVGDRVTITCQASQDISNALNWYQQKPGKAPKLLIYAASTLQSGVPSRFSGSGSGTDFTLTISSLQPEDFATYYCQHSNSFPLTFGGGTKVEIK ?
Result: 0.332

Data credit: patent US20240067734A1
